Experiment: A549 cell viability effects, profiling panel, calcein-AM fluorescence, 48 h, basal (AID 1162); note: test concentration not given here
Settings: higher = more signal
Examples of molecules with documented z-score follow.
Number, no unit, nothing else.

Query: Look up and report measured z-score for this entry: C=CCOC(=O)[C@@H]1[C@H]2C(=O)O[C@H](c3ccccc3)[C@H](c3ccccc3)N2[C@H](c2ccc(OCCOC(=O)[C@@H]3C[C@@H]4C(=O)N[C@@H](CCCCN(C)C)C(=O)N4[C@@H]3c3ccc(O)cc3)cc2)[C@@]12C(=O)Nc1ccc(I)cc12
Response: -0.303

Query: Look up and report measured z-score for this entry: C=CCNC(=O)[C@H]1[C@@H]2C(=O)O[C@@H](c3ccccc3)[C@@H](c3ccccc3)N2[C@@H](c2ccc(OCCO)cc2)[C@]12C(=O)N(C(=O)OCCOC)c1ccccc12
Response: 0.111

Query: Look up and report measured z-score for this entry: O=C(NCc1ccc(F)cc1)[C@H]1C[C@H]2C(=O)N[C@@H](Cc3ccccc3)C(=O)N2[C@H]1c1ccc(O)cc1
Response: 0.0416

Query: Look up and report measured z-score for this entry: C=C(CCCC)C(=O)CC[C@H](OC(C)=O)c1cccc(OCCO)c1
Response: -0.0802

Query: Look up and report measured z-score for this entry: C=CCOC(=O)[C@@H]1[C@H]2C(=O)O[C@H](c3ccccc3)[C@H](c3ccccc3)N2[C@H](c2ccc(OCCOC(=O)[C@@H]3C[C@@H]4C(=O)N[C@@H](Cc5ccccc5)C(=O)N4[C@@H]3c3ccc(O)cc3)cc2)[C@@]12C(=O)Nc1ccc(I)cc12
Response: -1.09

Query: Look up and report measured z-score for this entry: [N-]=[N+]=NCc1ccccc1[C@H]1OC(c2ccc(OCCCO)cc2)=N[C@@]1(Cc1ccccc1)C(=O)NCc1ccccc1
Response: -0.649

Query: Look up and report measured z-score for this entry: O=C1C[C@]2(c3ccc([N+](=O)[O-])cc3)C(=O)N(CCN3CCOCC3)c3cc(CO)ccc3[C@H]2N1C1CCCCC1
Response: 0.648

Query: Look up and report measured z-score for this entry: COc1cc(CO)cc(I)c1O[C@H]1C=C(C(=O)NCCO)C[C@@H](N(CCN2CCOCC2)C(=O)C2CCOC2)[C@@H]1O (stereo not given in full)
Response: 0.736

Query: Look up and report measured z-score for this entry: C=CCNC(=O)[C@@H]1[C@H]2C(=O)O[C@H](c3ccccc3)[C@H](c3ccccc3)N2[C@H](c2ccc(OCCO)cc2)[C@@]12C(=O)Nc1ccc(C#Cc3ccc(OC)cc3)cc12
Response: -0.717

Query: Look up and report measured z-score for this entry: C=CCN1C(=O)[C@]2(O[C@H](CCO)[C@@H]([Si](C)(C)c3ccc(OC)cc3)[C@@H]2C)c2cc(N3C(=O)c4cccc5cccc3c45)ccc21
Response: -3.27

---

Assay: small-molecule microarray binders of probe aXIP, primary screen, biochemical, NeuroSMM set, 635/667 nm fluorescence (AID 1119);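 note: probe is the protein aXip251-270 applied at 1 µg/mL to compound-printed slides; binding of probe to printed compounds measured as 667 nm fluorescence plus signal to noise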
Conditions: higher = more signal, called active from +8 up or from −8 down
Examples of compounds with documented composite Z-score follow.
Number, no unit, nothing else.

Reference set (10 entries):
• CC(C)(C)OC(=O)CC[C@]12N=C(c3ccc(OCCCO)cc3)O[C@H]1c1ccccc1N(CCS(=O)(=O)c1ccccc1)C2=O = 1.02
• O=C1O[C@H](c2ccccc2)[C@H](c2ccccc2)N2[C@H]1[C@@H](C(=O)O)[C@]1(C(=O)Nc3ccc(C#CCCO)cc31)[C@H]2c1ccc(O)cc1 = 0.0575
• C#CCN(CC=C(C)C)[C@H](CO)c1ccccc1 = 0.289
• COC(=O)[C@@]1(Cc2ccc(OC)cc2)[C@H]2c3cc(C(=O)N4CCCC4)n(Cc4ccccc4)c3C[C@H]2CN1C(=O)c1ccccc1 = 0.401
• CC(C)(C)OC(=O)CC[C@]1(C(=O)NCC(O)CO)COC(c2ccc(OCCCO)cc2)=N1 (stereo partly specified) = 0.0333
• COC(=O)[C@@]1(Cc2ccccc2)[C@H]2c3cc(C(=O)N(C)C)n(CCSCCO)c3C[C@H]2CN1C(=O)c1ccccc1 = 0.376
• COC(=O)C=C(CC(O)c1cccc(Cl)c1)OC (stereo unspecified) = 1.22
• CCCCCCC#C[Si](O[C@H](c1ccccc1)c1cn([C@H](CO)Cc2ccccc2)nn1)(C(C)C)C(C)C = -0.377
• COCCOC(=O)N1C(=O)[C@@]2(c3cc(C#Cc4ccc(OC)cc4)ccc31)[C@H](C(=O)N1CCCCCCC1)[C@H]1C(=O)O[C@H](c3ccccc3)[C@H](c3ccccc3)N1[C@@H]2c1ccc(OCCO)cc1 = 3.51
• O=C1c2ccccc2[C@@]2(Cc3ccccc3N(CC(F)(F)F)C2=O)[C@H](c2ccc(CO)cc2)N1Cc1ccccc1Cl = 0.142

Query compound follows.
Query: Look up and report measured composite Z-score for this entry: [N-]=[N+]=NCc1ccccc1C[C@]1(C(=O)N2CCOCC2)N=C(c2ccc(OCCCO)cc2)O[C@H]1c1ccccc1N=[N+]=[N-]
Response: -0.235
